Reference source for all entries: patent US20160106102A1

# Experiment description: log P determination by LC-MS in the acidic range
# Type: physicochemical
# Test parameters: LC-MS in the acidic range
Quantity: log P (acid)

Check out these entries, answers already filled in.
# Compound, log P (acid)
rows = [
    ("Cc1cc(NC(=O)c2cncc(Br)c2)nn1Cc1cccc(F)c1", 2.71),
    ("Cc1cc(NC(=O)c2cccnc2)nn1C(=O)NC(C)c1ccc(F)cc1 (stereo not shown)", 2.28),
    ("Cc1cc(NC(=O)c2cccnc2)nn1Cn1cccn1", 0.94),
    ("Cn1nc(NC(=O)c2cccnc2)cc1OC(F)F", 0.89),
    ("Cc1cc(NC(=O)c2cccnc2)nn1-c1ccc(Cl)cc1Cl", 2.36),
]

[A] Cc1cc(NC(=O)c2cccnc2)nn1-c1cccc(F)c1
[B] Cc1cc(NC(=O)c2cncc(F)c2)nn1CC(=O)O
In: Compare log P (acid): is it lower for A or for B ? Returns: label corresponding to the selected item.
Out: B

[I] O=C(Nc1ccn(Cc2ccccc2F)n1)c1cccnc1
[II] O=C(Nc1nn(Cc2ncccn2)cc1F)c1cccnc1
In: Among I and II , which shows a numerically higher log P (acid) result? Kindly state the label of the option you pick.
Out: I
(I: 1.58, II: 0.42)

----------
# Experiment description: log P determination by LC-MS in the acidic range
# Type: physicochemical
# Test parameters: LC-MS in the acidic range
# From the text: The LC-MS determination in the acidic range is effected at pH 2.7 using 0.1% aqueous formic acid and acetonitrile (contains 0.1% formic acid) as eluents, linear gradient from 10% acetonitrile to 95% acetonitrile. Alternatively, the determination is effected in the acidic range at pH 2.3 using 0.1% aqueous phosphoric acid and acetonitrile as eluents; linear gradient from 10% acetonitrile to 95% acetonitrile.
Quantity: log P (acid)

Consider the following illustrative entries.
# Substance smiles, log P (acid)
measured = [
    ("Cc1nc(Cn2nc(NC(=O)c3cccnc3)cc2C)no1", 0.9),
    ("COCn1nc(NC(=O)c2cccnc2)cc1C", 0.71),
    ("Cc1c(C#N)c(NC(=O)c2cccnc2)nn1Cc1ncccn1", 0.63),
    ("O=C(Nc1ccn(Cc2c(F)cccc2F)n1)c1cccnc1", 1.55),
    ("Cc1cc(NC(=O)c2cccnc2)nn1CC(F)(F)F", 1.32),
]

[I] Cc1ccnc(Cn2nc(NC(=O)c3ccnnc3)cc2C)n1
[II] Cc1cc(NC(=O)c2cccnc2)nn1Cc1nc(-c2ccccc2)no1
[III] CNS(=O)(=O)n1nc(NC(=O)c2cccnc2)cc1C
[IV] COc1ccc(-n2nc(NC(=O)c3cccnc3)cc2C)cc1
In: Write the entries in order, lowest recorded log P (acid) first. Sort and list the labels as requested.
Out: III, I, IV, II

[a] CCC(=O)n1nc(NC(=O)c2cccnc2)cc1C
[b] COCCn1nc(NC(=O)c2cccnc2)cc1C
In: Record comparison, field log P (acid): mark the lower of a and b . Which one? Tell me its label.
Out: b
(b: 0.79, a: 1.56)

[1] Cc1cc(NC(=O)c2cccnc2)nn1C(=O)c1cccc(Cl)c1
[2] Cc1ccnc(Cn2nc(NC(=O)c3cccnc3)cc2C)n1
[3] Cc1cc(NC(=O)c2cccnc2)nn1CS(C)(=O)=O
In: Thanks in advance: please rank these 3 entries by log P (acid), highest to lowest. API: response body holds the labels in the requested order.
Out: 1, 2, 3
(1: 1.92, 2: 0.96, 3: 0.59)

[1] Cc1cc(NC(=O)c2cccnc2)nn1-c1ccccc1
[2] Cn1nc(NC(=O)c2cccnc2)cc1C(F)F
In: Endpoint returns the identifier whose log P (acid) is numerically larger, either 1 or 2 . // respond with label for picked entry
Out: 1
